Values were extracted from ChEMBL document CHEMBL4364338.

# experimental details: Inhibition of CD95 (unknown origin)/FADD (unknown origin) protein-protein interaction transfected in HEK293T cells incubated for 1 hr by renilla luciferase based protein-fragment complementation assay
# Assay type: cell-based, Homo sapiens
measure: IC50 (mM)

Consider the following illustrative entries.
structure smiles	unit name	experimental value
N=C(N)NCCC[C@@H](C(=O)NCCN(C(=O)CCCCCN)[C@@H](Cc1c[nH]cn1)C(=O)NCCN(C(=O)CCc1c[nH]c2ccccc12)[C@@H](CCCCN)C(N)=O)N(CCN)C(=O)CCS	mM	2.65
N=C(N)NCCCCC(=O)N(CCNC(=O)[C@H](Cc1c[nH]cn1)N(CCNC(=O)[C@H](Cc1cccnc1)N(CCN)C(=O)CCS)C(=O)CCCCCN)[C@@H](CCCCN)C(N)=O	mM	4.25

P: N=C(N)NCCCCC(=O)N(CCNC(=O)[C@H](Cc1c[nH]cn1)N(CCNC(=O)[C@H](Cc1c[nH]c2ccccc12)N(CCN)C(=O)CCS)C(=O)CCCCCN)[C@@H](CCCCN)C(N)=O
Q: N=C(N)NCCCCC(=O)N(CCNC(=O)[C@H](Cc1c[nH]cn1)N(CCNC(=O)[C@H](CCCNC(=N)N)N(CCN)C(=O)CCO)C(=O)CCCCCN)[C@@H](CCCCN)C(N)=O
In: Please state the entry with greater IC50 among P and Q . Response format: the label of the selected entry.
Out: Q
(Q: 3.93 mM, P: 0.173 mM)
